- test.description: pKa value of the compound
- Format: physicochemical
readout.name: pKa
Write no unit; give the number alone.

Any idea what its pKa is? The compound is CN1CC[C@]23c4c5ccc(O)c4O[C@H]2[C@@H](O[C@@H]2O[C@H](C(=O)O)[C@@H](O)[C@H](O)[C@H]2O)C=C[C@H]3[C@H]1C5 (stereo in doubt; form 1) [MORPHINE GLUCURONIDE] 3.23
